assayed.target: T1, recombinant human interleukin-20 (human, UniProt Q9NYY1 25-176)
T1 sequence: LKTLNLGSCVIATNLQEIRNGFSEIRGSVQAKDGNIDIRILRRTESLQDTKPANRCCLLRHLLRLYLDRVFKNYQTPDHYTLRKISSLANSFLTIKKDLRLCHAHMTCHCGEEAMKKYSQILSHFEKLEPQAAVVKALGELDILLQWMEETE
assay.protocol: cell-based or functional assay
quantity.kind: IC50, inhibition of IL20 induced proliferation of BaF-3(hIL20R) at 1e-9M hIL20 (assay 1) (nM)
Provide the reading as a plain figure in nM.

binder	unit.string	numeric.value
human anti-IL20 antibody C11 (antibody, human IgG1, V domains shown) VH: QVQLVQSGAEVKRPGASVKVSCKASGYTFTNDIIHWVRQAPGQRLEWMGWINAGYGNTQYSQNFQDRVSITRDTSASTAYMELISLRSEDTAVYYCAREPLWFGESSPHDYYGMDVWGQGTTVTVSS VL: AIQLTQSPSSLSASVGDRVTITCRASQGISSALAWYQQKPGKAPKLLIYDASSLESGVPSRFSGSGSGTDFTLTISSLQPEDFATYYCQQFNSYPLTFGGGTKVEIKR	nM	260

// fetch IC50, inhibition of IL20 induced proliferation of BaF-3(hIL20R) at 1e-9M hIL20 (assay 1) given entry human anti-IL20 antibody 2F6 (antibody, human IgG4, V domains shown) VH: QITLKESGPTLVKPTQTLTLTCTFSGFSFSTNGVGVGWIRQPPGKALEWLALIYWNDDKRYSPSLKSRLTITKDTSKNQVVLTMTNMDPLDTATYYCAHSPFIMVRGVIITFFDFWGQGTLVT VL: VIWMTQSPSLLSASTGDRVTISCRMSQGISSYLAWYQQKPGKAPELLIYAASTLQSGVPSRFSGSGSGTDFTLTISCLQSEDFATYYCQQYYSFPLTFGGGTKVEIKR 15400

// fetch IC50, inhibition of IL20 induced proliferation of BaF-3(hIL20R) at 1e-9M hIL20 (assay 1) given entry human anti-hIL20 monoclonal antibody 5B7 (antibody, human IgG4, V domains shown, described as human IgG4; also called 5B7-wt) VH: QVQLVQSGAEVKRPGASVKVSCKASGYTFSSHIMHWVRQAPGQRLEWMGWINAGYGNTKYSQNFQDRVTITRDTSASTAYMELISLRSEDTAVYYCAREPLWFGELSPHDYYGMDVWGQGTTVTVSS VL: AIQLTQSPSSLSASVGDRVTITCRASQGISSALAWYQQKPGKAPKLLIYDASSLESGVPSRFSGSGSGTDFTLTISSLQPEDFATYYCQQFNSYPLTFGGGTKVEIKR 260

// fetch IC50, inhibition of IL20 induced proliferation of BaF-3(hIL20R) at 1e-9M hIL20 (assay 1) given entry human anti-hIL20 monoclonal antibody 15D2 (antibody, V domains shown, also called 15D2-wt; 15D2 wild-type) VH: QVQLVQSGAEVKRPGASVKVSCKASGYTFTNDIIHWVRQAPGQRLEWMGWINAGYGNTQYSQNFQDRVSITRDTSASTAYMELISLRSEDTAVYYCAREPLWFGESSPHDYYGMDVWGQGTTVTVSS VL: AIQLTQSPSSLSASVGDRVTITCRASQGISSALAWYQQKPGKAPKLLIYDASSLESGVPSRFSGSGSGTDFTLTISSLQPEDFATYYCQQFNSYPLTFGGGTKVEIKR 180

Cited source: patent US20130039923A1
